test-summary: in vivo
assay-conditions: rat, serum, po, 25 mg/kg
metric-name: half-life (h)
Write the answer as a number in h, unit excluded.

half-life for O=c1oc2ccccc2c(O)c1Cc1c(O)c2ccccc2oc1=O [STOCK DICUMAROL CONTROL, dicumarol] ?
18.2

---

test-summary: in vivo
assay-conditions: rat, serum, po, 25 mg/kg
metric-name: AUC (µg·h/mL)
State the answer as a number, implicitly in µg·h/mL.

For the molecule shown here, O=c1oc2ccccc2c(O)c1Cc1c(O)c2ccccc2oc1=O [STOCK DICUMAROL CONTROL, dicumarol] , give the reported AUC.
171

---

test-summary: in vivo
assay-conditions: rat, serum, po, 25 mg/kg
metric-name: Tmax (h)
# output: bare number, implied unit h

Any idea what Tmax was measured for O=c1oc2ccccc2c(O)c1Cc1c(O)c2ccccc2oc1=O [STOCK DICUMAROL CONTROL, dicumarol] ?
9.87
